- target-entity: N-formyl peptide receptor 2 (Homo sapiens)
- Sequence (P25090 whole entry): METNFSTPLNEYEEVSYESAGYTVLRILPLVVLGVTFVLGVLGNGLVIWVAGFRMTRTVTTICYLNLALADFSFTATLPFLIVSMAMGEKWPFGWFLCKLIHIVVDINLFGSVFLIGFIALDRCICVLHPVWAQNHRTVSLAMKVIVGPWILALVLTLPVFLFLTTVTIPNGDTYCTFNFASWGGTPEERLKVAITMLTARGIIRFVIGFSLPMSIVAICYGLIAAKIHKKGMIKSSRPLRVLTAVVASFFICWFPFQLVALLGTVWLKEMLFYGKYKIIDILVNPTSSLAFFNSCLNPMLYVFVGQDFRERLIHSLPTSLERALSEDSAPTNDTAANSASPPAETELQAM
test-readout: EC50 (nM)

A selection of reference data follows.
compound | EC50 / nM
COc1ccc(-n2cc(C3CCCNC3)nc2NC(=O)c2ccc(OC(F)F)cc2)cc1 (configuration not stated) | 210
COc1cc(F)c(-n2cc(-c3ccc(OC(F)F)cc3)nc2NC(=O)c2ccc(OC(F)F)cc2)c(F)c1 | 190

(a) COc1cc(F)c(-n2cc(C3CC3)nc2NC(=O)c2ccc(OC(F)F)cc2)c(F)c1
(b) COc1cc(F)c(-n2cc(-c3ccc(C(F)(F)F)cc3)nc2NC(=O)c2ccc(OC(F)F)cc2)c(F)c1
(c) COc1cc(F)c(-n2cc(-c3cccc(F)c3)nc2NC(=O)c2ccc(OC(F)F)cc2)c(F)c1
Input: Falling order of EC50, please. Answer format: list of labels, ordered as asked.
Output: a, c, b

----------
- target-entity: fMet-Leu-Phe receptor (Homo sapiens)
- Sequence (P21462 whole entry): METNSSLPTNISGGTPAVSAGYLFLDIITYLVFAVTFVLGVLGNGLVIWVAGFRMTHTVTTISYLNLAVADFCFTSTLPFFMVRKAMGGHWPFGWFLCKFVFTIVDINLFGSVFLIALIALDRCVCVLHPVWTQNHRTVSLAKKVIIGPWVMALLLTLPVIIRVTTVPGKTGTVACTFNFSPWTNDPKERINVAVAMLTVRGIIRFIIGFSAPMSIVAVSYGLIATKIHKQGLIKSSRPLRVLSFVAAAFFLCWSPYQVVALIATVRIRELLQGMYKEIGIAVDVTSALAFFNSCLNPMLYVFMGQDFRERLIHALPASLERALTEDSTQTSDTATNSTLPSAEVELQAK
pEC50: −log10 of the molar value.
test-readout: pEC50

A selection of reference data follows.
compound | result-number
COc1ccc(-n2cc(-c3nc4cc(Cl)ccc4o3)nc2NC(=O)c2ccc(OC(F)F)cc2)cc1 [WO2022076764, Example 26] | 7.14
COc1ccc(-n2cc(C3CCCCC3)nc2NC(=O)c2ccc(OC(F)F)cc2)cc1 [WO2022076764, Example 27] | 7.26
CCc1cn(-c2c(F)cc(OC)cc2F)c(NC(=O)c2ccc(OC(F)F)cc2)n1 [WO2022076764, Example 39] | 7.68
COc1cc(F)c(-n2cc(-c3ccccc3)nc2NC(=O)c2ccc(OC(F)F)cc2)c(F)c1 [WO2022076764, Example 1] | 8.40
CCOC(=O)c1cn(-c2ccc(OC)cc2)c(NC(=O)c2ccc(OC(F)F)cc2)n1 [WO2022076764, Example 30] | 8.05
COc1cc(F)c(-n2cc(C(C)C)nc2NC(=O)c2ccc(OC(F)F)cc2)c(F)c1 [WO2022076764, Example 70] | 7.51

(1) CCNC(=O)N1CCC(c2cn(-c3c(F)cc(OC)cc3F)c(NC(=O)c3ccc(OC(F)F)cc3)n2)CC1 [WO2022076764, Example 66]
(2) COc1cc(F)c(-n2cc(-c3nccs3)nc2NC(=O)c2ccc(OC(F)F)cc2)c(F)c1 [WO2022076764, Example 40]
Input: I'd appreciate it if you could identify which of 1 and 2 has the greater pEC50. Respond with the label that goes with your answer.
Output: 2
